B1: RSPH3 (parent)
chain: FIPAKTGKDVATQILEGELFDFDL

- Variants of: B1
- METHOD_SUMMARY: protein stability index of a GFP-peptide fusion (GPS, HEK-293T) (PSI 1-6); higher = more stable;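 note: lentivirally expressed fusions sorted by FACS into six bins by GFP to DsRed ratio, PSI derived from sequencing read proportions per bin multiplied by bin number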
- RUN_CONDITIONS: c terminus: a fixed tail appended
MEASURED_PROPERTY: protein stability index
# respond with the number and nothing more

Consider the worked cases shown below.
1) L19V
1.74
2) A4H
1.62
3) A4G
2.48
4) K8A
2.13
5) F22N
2.87
6) I2K
3.86
7) D23C
2.08
8) P3T
2.24
9) I14G
1.49
10) I14L
2.27

Input F20S . Output protein stability index: 2.52

Quick note, protein stability index for P3Y landed at 1.52

Input E16A . Output protein stability index: 1.46

Entry L19A — recorded protein stability index = 2.2

For reference, reported protein stability index for G7H stands at 2.08

Sure, the documented protein stability index for K5W is 1.57

Data point: D21A ; protein stability index = 2.33

Reported protein stability index for L15C was 1.85

Value of protein stability index reported for the variant L15Q is 1.96

# variant T6S ; its protein stability index = 1.71

Value of protein stability index reported for the variant E16D is 1.86

Note to self: protein stability index recorded for F22Q was 2.84

Entry A4V ; protein stability index = 2.28

So for Q13R , the logged protein stability index turned out to be 1.58

Memo: D21G , reported protein stability index: 2.24

// K5F : protein stability index value = 2.46
